test system: recombinant FAD-GDH (rAT-FAD-GDH) derived from Aspergillus terreus; assay: Thermal stabilization effect of stabilizing agents on rAT-FAD-GDH in solution (Example 9); assay type: physicochemical; conditions: Table 10; buffer 50 mM K-PB; 50° C., 15 min versus 4° C.; stabilizer at each final concentration described in Table 1
result_type: Residual activity ratio (%)

- compound: "C[C@H](N)C(=O)O"
  tested_on: "recombinant FAD-GDH (rAT-FAD-GDH) derived from Aspergillus terreus"
  result_type: "Residual activity ratio (%)"
  endpoint_result: 3.2
- compound: "O=C[C@H](O)[C@@H](O)[C@H](O)CO [D-(+)-xylose]"
  tested_on: "recombinant FAD-GDH (rAT-FAD-GDH) derived from Aspergillus terreus"
  result_type: "Residual activity ratio (%)"
  endpoint_result: 18.5
- compound: "OC[C@@H](O)[C@H]1OC[C@H](O)[C@H]1O"
  tested_on: "recombinant FAD-GDH (rAT-FAD-GDH) derived from Aspergillus terreus"
  result_type: "Residual activity ratio (%)"
  endpoint_result: 2.5
- compound: "OC[C@H]1O[C@@H]2O[C@H]3[C@H](O)[C@@H](O)[C@@H](O[C@H]4[C@H](O)[C@@H](O)[C@@H](O[C@H]5[C@H](O)[C@@H](O)[C@@H](O[C@H]6[C@H](O)[C@@H](O)[C@@H](O[C@H]7[C@H](O)[C@@H](O)[C@@H](O[C@H]1[C@H](O)[C@H]2O)O[C@@H]7CO)O[C@@H]6CO)O[C@@H]5CO)O[C@@H]4CO)O[C@@H]3CO"
  tested_on: "recombinant FAD-GDH (rAT-FAD-GDH) derived from Aspergillus terreus"
  result_type: "Residual activity ratio (%)"
  endpoint_result: 1.5
- compound: "N[C@@H](Cc1c[nH]cn1)C(=O)O"
  tested_on: "recombinant FAD-GDH (rAT-FAD-GDH) derived from Aspergillus terreus"
  result_type: "Residual activity ratio (%)"
  endpoint_result: 0.5
- compound: "O=C(CO)[C@@H](O)[C@H](O)[C@H](O)CO [D-(−)-fructose]"
  tested_on: "recombinant FAD-GDH (rAT-FAD-GDH) derived from Aspergillus terreus"
  result_type: "Residual activity ratio (%)"
  endpoint_result: 2.7
- compound: "O.O.OC[C@H]1O[C@H](O[C@H]2O[C@H](CO)[C@@H](O)[C@H](O)[C@H]2O)[C@H](O)[C@@H](O)[C@@H]1O [D-(+)-trehalosedihydrate]"
  tested_on: "recombinant FAD-GDH (rAT-FAD-GDH) derived from Aspergillus terreus"
  result_type: "Residual activity ratio (%)"
  endpoint_result: 15.8

---

system: recombinant FAD-GDH (rAT-FAD-GDH) derived from Aspergillus terreus; test: Thermal stabilization effect of stabilizing agents on rAT-FAD-GDH in solution (Example 9); format: physicochemical; conditions: Table 10; buffer 50 mM K-PB; 50° C., 15 min versus 4° C.; stabilizer at each final concentration described in Table 1
Heads up, the class ranges for Residual activity ratio (%) are group 1 (below 1%), group 2 (1% to below 2%), group 3 (2% or more)

- compound: "N[C@@H](Cc1c[nH]c2ccccc12)C(=O)O"
  class_name: "group 2"
- compound: "O=C1O[C@H](CO)[C@@H](O)[C@H](O)[C@H]1O"
  class_name: "group 1"
- compound: "O=C(O)C1OC(O)C(O)C(O)C1O (stereo not shown)"
  class_name: "group 1"
- compound: "NC(=O)C[C@H](N)C(=O)O"
  class_name: "group 2"
- compound: "OC[C@H]1O[C@@](CO)(O[C@H]2O[C@H](CO)[C@@H](O)[C@H](O)[C@H]2O)[C@@H](O)[C@@H]1O"
  class_name: "group 3"
- compound: "CC[C@H](C)[C@H](N)C(=O)O (racemic)"
  class_name: "group 2"
- compound: "OC[C@H]1O[C@H](OCC2O[C@@H](O)[C@H](O)[C@@H](O)[C@@H]2O)[C@H](O)[C@@H](O)[C@H]1O (stereo partly drawn) [a-D-(+)-melibiose]"
  class_name: "group 3"
- compound: "O=CC[C@@H](O)[C@H](O)[C@H](O)CO"
  class_name: "group 3"
- compound: "NCC(=O)O"
  class_name: "group 3"
- compound: "CC(C)C[C@H](N)C(=O)O"
  class_name: "group 2"

Value source: patent US20080090278A1
